Assay: Drug metabolism in liver microsomes (unknown origin) assessed as compound remaining at 5 ug/ml after 5 mins in presence of NADPH by UPLC analysis
Assay type: ADME, Microsome
Details: read-out: Drug metabolism
Parameter: remaining at 5 min, 5 ug/ml (%)
Answer format: numeric, % implied, no suffix.

Req: Report remaining at 5 min, 5 ug/ml for O=C1/C(=C/c2ccccc2F)CN(Cc2cn(Cc3ccc(F)cc3)nn2)C/C1=C\c1ccccc1F
Resp: 46

###

Assay: Half life in liver microsomes (unknown origin) at 8 ug/ml in presence of NADPH by UPLC analysis
Assay type: ADME, Microsome
Parameter: half-life at 8 ug/ml (min)
Answer format: numeric, min implied, no suffix.

Req: Report half-life at 8 ug/ml for Cc1ccc(/C=C2\CN(Cc3cn(Cc4ccccc4F)nn3)C/C(=C\c3ccc(C)cc3)C2=O)cc1
Resp: 15.9

###

Experiment: Stability of the compound in simulated gastric fluid assessed as compound remaining after 1 hr at 37 degC by UPLC analysis
Format: ADME
Conditions: read-out: Stability
Parameter: remaining at 1 h (%)
Answer format: numeric, % implied, no suffix.

{"Cpd smiles": "O=C1/C(=C/c2ccccc2F)CN(Cc2cn(Cc3ccc(F)cc3)nn2)C/C1=C\\c1ccccc1F", "Units symbol": "%", "Reported value": 85}

Req: Report remaining at 1 h for Cc1ccc(/C=C2\CN(Cc3cn(Cc4ccccc4F)nn3)C/C(=C\c3ccc(C)cc3)C2=O)cc1
Resp: 92

###

Assay: Elimination rate constant in liver microsomes (unknown origin) at 8 ug/ml measured up to 60 mins by UPLC analysis
Assay type: ADME, Microsome
Parameter: k el at 1 h, 8 ug/ml

Req: Report k el at 1 h, 8 ug/ml for Cc1ccc(/C=C2\CN(Cc3cn(Cc4ccccc4F)nn3)C/C(=C\c3ccc(C)cc3)C2=O)cc1
Resp: 0.000733 s⁻¹

###

Test: Elimination rate constant in liver microsomes (unknown origin) assessed as compound remaining measured up to 60 mins by UPLC analysis
Assay type: ADME, Microsome
Parameter: k el at 1 h
Hey, just the number and the unit after it is fine.

Req: Report k el at 1 h for COc1cc(/C=C/C(=O)CC(=O)/C=C/c2ccc(O)c(OC)c2)ccc1O
Resp: 0.00085 s⁻¹

###

Assay: Intrinsic hepatic clearance in liver microsomes (unknown origin) assessed per mg of protein at 5 ug/ml in presence of NADPH by UPLC analysis
Assay type: ADME, Microsome
Settings: read-out: CLH (converted)
Parameter: CLint scaled at 5 ug/ml (mL/min/kg)
Answer format: numeric, mL/min/kg implied, no suffix.

Req: Report CLint scaled at 5 ug/ml for O=C1/C(=C/c2ccccc2F)CN(Cc2cn(Cc3ccc(F)cc3)nn2)C/C1=C\c1ccccc1F
Resp: 5280

###

Assay: Drug metabolism in liver microsomes (unknown origin) assessed as compound remaining after 5 mins in presence of NADPH by UPLC analysis
Type: ADME, Microsome
Settings: read-out: Drug metabolism
Parameter: remaining at 5 min (%)
Answer format: numeric, % implied, no suffix.

Req: Report remaining at 5 min for COc1cc(/C=C/C(=O)CC(=O)/C=C/c2ccc(O)c(OC)c2)ccc1O
Resp: 45

###

Assay: Intrinsic clearance in liver microsomes (unknown origin) assessed per mg of protein at 5 ug/ml in presence of NADPH by UPLC analysis
Format: ADME, Microsome
Parameter: CLint (µL/min/mg)
Answer format: numeric, µL/min/mg implied, no suffix.

Req: Report CLint for O=C1/C(=C/c2ccccc2F)CN(Cc2cn(Cc3ccc(F)cc3)nn2)C/C1=C\c1ccccc1F
Resp: 176
